These data points were gathered from PubChem BioAssay (NCI).

Overview of reported growth across a group of compounds:
test system: OVCAR-3 ovarian; experiment: NCI-60 one-dose screen, 48 h (100 = growth as untreated, 0 = no growth, -100 = all killed); conditions: 10 µM unless noted
About 83,000 compounds went through this panel and 20% of them were active in at least one assay; those are over-represented in the sample as a whole.

{"columns": ["COMPOUND", "growth, %"],
 "data": [
  ["Cc1cc(C)cc(NC(=O)Cn2cc(COn3nnc4ccccc43)nn2)c1", 129],
  ["O=C1c2c(c3c4cc(F)ccc4oc3c3[nH]c4ccc(Br)cc4c23)C(=O)N1O", 67.2],
  ["COc1ccc(-c2nc(SCC(C)C)nc(NCCc3c[nH]c4ccccc34)c2C#N)cc1", 85.4],
  ["C=C1CC[C@@H]2[C@]3(C)COC(c4ccccc4)O[C@@H]3CC[C@@]2(C)[C@@H]1C/C=C1/C(=O)OCC1OC(C)=O (stereo partly drawn)", -88.2],
  ["Cc1ccc(-c2nc(Nc3ccccc3S(N)(=O)=O)c3ccccc3n2)cc1", 97.1],
  ["Cn1cc(-c2cc(N)n3nc(-c4c[nH]c5ccccc45)cc3n2)c2cccnc21", 12.6],
  ["Nc1nc(C(F)(F)F)cs1", 108],
  ["Cc1ccc(Cc2cnc(NC(=O)c3ccc(/C=C4\\SC(=S)N(C)C4=O)cc3)s2)cc1", 3.26]
]}
